Biological target: Angiotensin-converting enzyme (Oryctolagus cuniculus)
Sequence (P12822 whole entry): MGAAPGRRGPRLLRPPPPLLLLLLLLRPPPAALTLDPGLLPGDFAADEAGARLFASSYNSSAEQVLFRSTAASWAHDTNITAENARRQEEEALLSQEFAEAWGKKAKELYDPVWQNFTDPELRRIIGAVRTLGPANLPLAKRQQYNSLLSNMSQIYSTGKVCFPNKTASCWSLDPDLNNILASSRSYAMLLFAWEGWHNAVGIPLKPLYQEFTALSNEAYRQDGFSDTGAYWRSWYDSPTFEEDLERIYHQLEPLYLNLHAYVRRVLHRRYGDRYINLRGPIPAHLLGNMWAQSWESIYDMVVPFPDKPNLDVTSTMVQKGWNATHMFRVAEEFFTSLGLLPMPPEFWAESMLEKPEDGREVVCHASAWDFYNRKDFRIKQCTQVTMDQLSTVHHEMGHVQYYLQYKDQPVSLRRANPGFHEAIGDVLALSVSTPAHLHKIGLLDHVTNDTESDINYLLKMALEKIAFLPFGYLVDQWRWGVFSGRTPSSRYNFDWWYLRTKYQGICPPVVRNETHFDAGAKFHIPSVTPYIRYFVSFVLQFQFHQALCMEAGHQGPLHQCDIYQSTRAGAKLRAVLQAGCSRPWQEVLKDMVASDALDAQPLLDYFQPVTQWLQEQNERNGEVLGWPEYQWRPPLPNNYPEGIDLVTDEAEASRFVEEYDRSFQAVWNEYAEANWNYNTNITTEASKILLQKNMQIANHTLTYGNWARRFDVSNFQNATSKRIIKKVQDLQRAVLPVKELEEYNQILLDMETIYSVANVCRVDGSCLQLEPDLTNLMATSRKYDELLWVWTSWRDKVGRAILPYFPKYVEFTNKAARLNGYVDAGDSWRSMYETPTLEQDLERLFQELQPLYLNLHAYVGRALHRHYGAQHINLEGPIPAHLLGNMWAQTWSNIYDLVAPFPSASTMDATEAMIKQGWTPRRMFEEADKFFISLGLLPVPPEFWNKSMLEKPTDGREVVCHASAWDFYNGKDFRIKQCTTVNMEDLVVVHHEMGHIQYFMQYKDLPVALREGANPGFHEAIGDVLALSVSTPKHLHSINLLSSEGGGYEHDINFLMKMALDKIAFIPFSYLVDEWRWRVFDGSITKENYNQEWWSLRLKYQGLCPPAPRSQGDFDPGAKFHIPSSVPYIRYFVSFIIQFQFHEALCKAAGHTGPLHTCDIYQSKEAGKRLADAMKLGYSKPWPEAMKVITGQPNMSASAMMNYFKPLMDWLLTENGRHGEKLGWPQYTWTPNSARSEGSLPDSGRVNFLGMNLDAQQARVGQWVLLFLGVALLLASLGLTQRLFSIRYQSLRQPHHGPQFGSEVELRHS
attribute measured: IC50

## Task Using the record for CC(=O)SCC(C)C(=O)N(CC(=O)O)C1CCCCC1 (configuration not stated) , report its IC50.
## Result 270 nM

## Task Entry C[C@@H](CSC(=O)C(C)(C)C)C(=O)N(CC(=O)O)C1CCCC1 has what IC50?
## Result > 100000 nM

## Task Which value of IC50 has been reported for CC(CS)C(=O)N(CC(=O)O)C1CC2CCC1C2 (configuration not stated) in the records?
## Result 32 nM

## Task Quick check: IC50 of CC(CS)C(=O)N(CC(=O)O)C[C@H]1CC2CC(C1C)C2(C)C (some centres not stated) ?
## Result 160 nM

## Task Tell me the measured IC50 of CSCCCN(CC(=O)O)C(=O)C(C)CSC(C)=O (configuration not stated) , please.
## Result 900 nM

## Task Sample CC(=O)SCC(C)C(=O)N(CC(=O)O)C1CCS(=O)(=O)C1 (configuration not stated) — what was its IC50?
## Result 280 nM

## Task Item under review: CC(=O)SCC(C)C(=O)N(CC(=O)O)c1ccccc1C (configuration not stated) . Reported IC50?
## Result 550 nM

## Task Query: IC50; subject: CC(CS)C(=O)N(CC(=O)O)CC1CC2CC(C1C)C2(C)C (configuration not stated)
## Result 440 nM

## Task Name the reported IC50 value associated with the compound CC(CS)C(=O)N(CC(=O)O)Cc1ccco1 (configuration not stated)
## Result 170 nM
